The following compounds are shown together with reported MIC values.
tested on: Staphylococcus aureus; assay: Antibacterial activity against methicillin-resistant Staphylococcus aureus clinical isolate 309/08 after 18 hrs by twofold serial agar dilution technique; format: functional; conditions: clinical isolate 309/08, 18 h

{"columns": ["substanceSmiles", "unitsOfMeasure", "censoringQualifier", "MIC"],
 "data": [
  ["S=C(Nc1ccc(Br)cc1)Nc1nc[nH]n1", "µg/mL", "=", 50],
  ["Fc1cccc(NC(=S)Nc2nc[nH]n2)c1", "µg/mL", "=", 12.5],
  ["S=C(Nc1ccc(Cl)cc1)Nc1nc[nH]n1", "µg/mL", "=", 25],
  ["S=C(Nc1nc[nH]n1)Nc1ccccc1Br", "µg/mL", "=", 50],
  ["S=C(Nc1ccccc1)Nc1nc[nH]n1", "µg/mL", "=", 50],
  ["Fc1ccccc1NC(=S)Nc1nc[nH]n1", "µg/mL", ">", 400],
  ["Fc1ccc(NC(=S)Nc2nc[nH]n2)cc1", "µg/mL", "=", 50],
  ["S=C(Nc1ccc(I)cc1)Nc1nc[nH]n1", "µg/mL", "=", 25]
]}
